Assay: 4-week subchronic toxicity study in dogs, D-24851 plasma pharmacokinetics
Format: in vivo
Conditions: male, dog, plasma, iv, 12.1 mg/kg, Day 1; Composition 4 i.v. 12.1 mg/kg; Males; Meanar n=3; read-out: tmax, sd
Method: Blood samples from all animals were taken at the following times: 1 h, 2 h, 4 h, 8 h, 16 h, 24 h, 36 h and 48 hours after application. The concentration levels of D-24851 were measured using HPLC.
MEASUREMENT_TYPE: Tmax (h)
Respond with the bare value in h.

Measured Tmax, `O=C(Nc1ccncc1)C(=O)c1cn(Cc2ccc(Cl)cc2)c2ccccc12` : 2.67

----------
Experiment: 4-week subchronic toxicity study in dogs, D-24851 plasma pharmacokinetics
Type: in vivo
Conditions: female, dog, plasma, iv, 2.61 mg/kg, Day 1; Composition 4 i.v. 2.61 mg/kg; Females; Meanar n=3; read-out: AUCτ, sd
MEASUREMENT_TYPE: AUC (ng·h/mL)
Respond with the bare value in ng·h/mL.

Measured AUC, `O=C(Nc1ccncc1)C(=O)c1cn(Cc2ccc(Cl)cc2)c2ccccc12` : 3400

----------
Assay: 4-week subchronic toxicity study in dogs, D-24851 plasma pharmacokinetics
Assay type: in vivo
Conditions: female, dog, plasma, iv, 5.62 mg/kg, Day 27; Composition 4 i.v. 5.62 mg/kg; Females; Meanar n=3; read-out: Cmax, md
MEASUREMENT_TYPE: Cmax (ng/mL)
Respond with the bare value in ng/mL.

Measured Cmax, `O=C(Nc1ccncc1)C(=O)c1cn(Cc2ccc(Cl)cc2)c2ccccc12` : 315

----------
Experiment: 4-week subchronic toxicity study in dogs, D-24851 plasma pharmacokinetics
Assay type: in vivo
Conditions: female, dog, plasma, iv, 5.62 mg/kg, Day 1; Composition 4 i.v. 5.62 mg/kg; Females; Meanar n=3; read-out: Cmax, sd
MEASUREMENT_TYPE: Cmax (ng/mL)
Respond with the bare value in ng/mL.

Measured Cmax, O=C(Nc1ccncc1)C(=O)c1cn(Cc2ccc(Cl)cc2)c2ccccc12 [Composition D-24851] : 279
